Reference source for all entries: ChEMBL document CHEMBL1151501

# study_target: Neutrophil elastase (Homo sapiens) (UniProt P08246)
# Sequence (whole entry): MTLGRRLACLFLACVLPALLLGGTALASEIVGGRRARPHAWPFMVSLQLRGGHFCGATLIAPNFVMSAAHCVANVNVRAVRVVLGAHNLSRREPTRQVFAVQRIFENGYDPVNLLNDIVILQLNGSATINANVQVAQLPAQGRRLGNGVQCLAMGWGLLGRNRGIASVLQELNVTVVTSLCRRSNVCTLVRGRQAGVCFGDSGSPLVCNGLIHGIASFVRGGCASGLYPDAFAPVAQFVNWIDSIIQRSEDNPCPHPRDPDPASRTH
value_type: Kreact (s⁻¹)
Number in s⁻¹, nothing else.

Specify Kreact for CC(=O)OCN1C(=O)c2ccccc2S1(=O)=O , system Neutrophil elastase (Homo sapiens) (UniProt P08246).
0.0001

Please report Kreact with Neutrophil elastase (Homo sapiens) (UniProt P08246) for item CCOc1cccc2c1C(=O)N(CSc1nnnn1-c1ccccc1)S2(=O)=O .
0.00014

Please report Kreact with Neutrophil elastase (Homo sapiens) (UniProt P08246) for item O=C1c2c(-c3ccccc3)cccc2S(=O)(=O)N1CSc1nnnn1-c1ccccc1 .
0.0005

Report value only: Kreact, Neutrophil elastase (Homo sapiens) (UniProt P08246), O=C1c2ccccc2S(=O)(=O)N1CSc1nnnn1C1CCCCC1
0.0001

Look up and report Kreact, with Neutrophil elastase (Homo sapiens) (UniProt P08246) as system, for CC(C)Oc1cccc2c1C(=O)N(CSc1nnnn1-c1ccccc1)S2(=O)=O
0.00016

Fill in: Kreact on Neutrophil elastase (Homo sapiens) (UniProt P08246), entry Cn1nnnc1SCN1C(=O)c2ccccc2S1(=O)=O
0.0001

Write down measured Kreact (Neutrophil elastase (Homo sapiens) (UniProt P08246)) for this compound. Cn1cnnc1SCN1C(=O)c2ccccc2S1(=O)=O
4.7e-05

State Kreact on Neutrophil elastase (Homo sapiens) (UniProt P08246). Entry: O=C1c2c(Br)cccc2S(=O)(=O)N1CSc1nnnn1-c1ccccc1
0.00036
